Measured values drawn from the supplement of paper PMC7877785 for this set.

What self-splicing fitness (ln) was measured for each of the following?
Test: self-splicing fitness, log relative to wild type (ln ratio); higher = more splicing; Tetrahymena group I intron in knt gene, E. coli kanamycin selection, DiMSum; sequences stand for … in CUCUCU…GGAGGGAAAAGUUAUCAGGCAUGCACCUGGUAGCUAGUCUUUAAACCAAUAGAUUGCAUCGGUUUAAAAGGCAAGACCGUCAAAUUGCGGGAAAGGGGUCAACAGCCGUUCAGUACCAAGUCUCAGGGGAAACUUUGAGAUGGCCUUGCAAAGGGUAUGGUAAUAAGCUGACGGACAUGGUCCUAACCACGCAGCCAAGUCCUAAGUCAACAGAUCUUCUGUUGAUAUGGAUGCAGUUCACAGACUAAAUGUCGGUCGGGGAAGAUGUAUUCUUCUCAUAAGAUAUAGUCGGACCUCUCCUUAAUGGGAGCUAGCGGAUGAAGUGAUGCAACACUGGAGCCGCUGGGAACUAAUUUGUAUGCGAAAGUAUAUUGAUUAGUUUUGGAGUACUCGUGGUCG;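 also: selection with 25 µg/mL kanamycin versus none on LB agar overnight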
Conditions: 30 °C
Answers are plain numbers.

As a guide, the following entries are already answered.
Sequence entry | self-splicing fitness (ln)
GCUUAGCAAUAUUACGCACU | -0.857
AACAAGCAAUAUUACGCAAU | -1.37
AGCUAGCAAUAUUACGUUUA | -2.69
AUAUAGCAAUAUUACGUGGA | -3.57
CGACAGCAAUAUUACGGUUU | -1.64

// input: 6 sequences below; output: self-splicing fitness (ln) for each
1. GGCUAGCAAUAUUACGUCCG
2. AGGUAGCAAUAUUACGGCAU
3. CGAGAGCAAUAUUACGAGAG
4. GGAAAGCAAUAUUACGUAGG
5. CCGCAGCAAUAUUACGAGCG
6. UCCAAGCAAUAUUACGCAAG

Solution:
-2.88
-0.129
-3.58
-3.23
-2.4
-3.86

// input: 7 sequences below; output: self-splicing fitness (ln) for each
1. GUCCAGCAAUAUUACGGUCU
2. AAAUAGCAAUAUUACGACGU
3. GCCUAGCAAUAUUACGGUAG
4. AAAGAGCAAUAUUACGUCAG
5. CGUGAGCAAUAUUACGUAAU
6. GGUGAGCAAUAUUACGACGG
7. GAAAAGCAAUAUUACGUUGG

Solution:
[-2.7, 0.194, -3.79, -4.01, -3.22, -2.18, -3.55]

// input: 2 sequences below; output: self-splicing fitness (ln) for each
1. GUUUAGCAAUAUUACGAGUG
2. AUUCAGCAAUAUUACGGGUU

Solution:
1. -3.74
2. -2.8

// input: 7 sequences below; output: self-splicing fitness (ln) for each
1. AGCUAGCAAUAUUACGUCUC
2. GAGGAGCAAUAUUACGAGUU
3. CAACAGCAAUAUUACGUCUC
4. AAUUAGCAAUAUUACGUAAA
5. CAAGAGCAAUAUUACGUGUU
6. GGCAAGCAAUAUUACGGGCG
7. CUUUAGCAAUAUUACGGGUC

Solution:
-4.51
-3.46
-2.24
-1.3
-3.47
0.0849
-3.26

// input: 4 sequences below; output: self-splicing fitness (ln) for each
1. AAUGAGCAAUAUUACGUGAU
2. GGCGAGCAAUAUUACGGGAC
3. AAACAGCAAUAUUACGGUUA
4. GCAUAGCAAUAUUACGUCUU

Solution:
-3.8
-2.22
-0.306
-1.46

// input: 3 sequences below; output: self-splicing fitness (ln) for each
1. CUACAGCAAUAUUACGGCGA
2. UAAAAGCAAUAUUACGCAGU
3. GUUUAGCAAUAUUACGGCGA

Solution:
1: -2.97; 2: -2.66; 3: -0.198
